# System: CMV
# Test method notes: Plaque Reduction Test for Cytomegalovirus (AD-169 strain) in MRC-5 cells
# Assay type: cell-based
# Run parameters: Human betaherpesvirus 5, AD169, MRC5
Value kind: IC50 (µg/mL)
Reply with just the number (in µg/mL).

Reference set (4 entries):
Exercise: Give reported IC50 value for Nc1nc2c(ncn2OCC/C=C\P(=O)(O)O)c(=O)[nH]1 [Example 11, (Z)-9-(4-phosphonobut-3-enyloxy)guanine]
Solution: 55

Exercise: Give reported IC50 value for Nc1ncnc2c1ncn2CC(/C=C/P(=O)(O)O)CO (centres unmarked) [Example 17]
Solution: 11

Exercise: Give reported IC50 value for Nc1nc2c(ncn2OCC(/C=C/P(=O)(O)O)CO)c(=O)[nH]1 (centres unmarked) [Example 13]
Solution: 15

Exercise: Give reported IC50 value for Nc1nc2c(ncn2OCC/C=C/P(=O)(O)O)c(=O)[nH]1 [Example 1, (E)-9-(4-phosphonobut-3-enyloxy)guanine]
Solution: 0.16

// next item, IC50 requested
Exercise: Give reported IC50 value for Nc1nc2c(ncn2CC/C=C/P(=O)(O)O)c(=O)[nH]1 [Example 6, (E)-9-[4-phosphonobut-3-enyl]guanine]
Solution: 15

---

IC50 values, listed per item
# System: HSV-2
# Test method notes: Plaque Reduction Test for Herpes Simplex Virus 2 (strain MS) in MRC-5 cells
# Assay type: cell-based
# Run parameters: Human alphaherpesvirus 2, MRC5
Reply with just the number (in µg/mL).

Reference set (2 entries):
Exercise: Give reported IC50 value for Nc1nc2c(ncn2CC/C=C/P(=O)(O)O)c(=O)[nH]1 [Example 6, (E)-9-[4-phosphonobut-3-enyl]guanine]
Solution: 26

Exercise: Give reported IC50 value for Nc1nc2c(ncn2OCC(/C=C/P(=O)(O)O)CO)c(=O)[nH]1 (centres unmarked) [Example 13]
Solution: 60

// next item, IC50 requested
Exercise: Give reported IC50 value for Nc1ncnc2c1ncn2CC(/C=C/P(=O)(O)O)CO (centres unmarked) [Example 17]
Solution: 29

---

# Test method notes: Drug-induced cytotoxicity for the MRC-5 cell monolayers in the CMV test
# Format: cell-based
# Run parameters: human, mrc-5 cells, read-out: concentration at which cytotoxicity was noted
Value kind: MCC (µg/mL)
Reply with just the number (in µg/mL).

Exercise: Give reported MCC value for Nc1nc2c(ncn2OCC/C=C/P(=O)(O)O)c(=O)[nH]1 [Example 1, (E)-9-(4-phosphonobut-3-enyloxy)guanine]
Solution: 10

---

IC50 values, listed per item
# Test system: VZV
# Test method notes: Plaque Reduction Test for Varicella-Zoster Virus (Ellen strain) in MRC-5 cells
# Format: cell-based
# Run parameters: Human alphaherpesvirus 3, MRC5
Reply with just the number (in µg/mL).

Exercise: Give reported IC50 value for Nc1nc2c(ncn2OCC(/C=C/P(=O)(O)O)CO)c(=O)[nH]1 (centres unmarked) [Example 13]
Solution: 5

// next item, IC50 requested
Exercise: Give reported IC50 value for Nc1nc2c(ncn2CC/C=C/P(=O)(O)O)c(=O)[nH]1 [Example 6, (E)-9-[4-phosphonobut-3-enyl]guanine]
Solution: 55

---

MCC values, listed per item
# Test method notes: Cytotoxicity for the cell monolayers in the FIV test
# Type: cell-based
# Run parameters: cat, crandell feline kidney cells, no cytotoxicity noted with concentrations up to this value, read-out: cytotoxicity for the cell monolayers

Reference set (2 entries):
Exercise: Give reported MCC value for Nc1ncnc2c1ncn2OCC(/C=C/P(=O)(O)O)CO (stereo not drawn)
Solution: > 100 µg/mL

Exercise: Give reported MCC value for Nc1ncnc2c1ncn2OCC/C=C/P(=O)(O)O [Example 3, (E)-9-(4-phosphonobut-3-enyloxy)adenine]
Solution: > 100 µg/mL

// next item, MCC requested
Exercise: Give reported MCC value for Nc1nc2c(ncn2OCC/C=C/P(=O)(O)O)c(=O)[nH]1 [Example 1, (E)-9-(4-phosphonobut-3-enyloxy)guanine]
Solution: > 100 µg/mL

---

MIC values, listed per item
# Test system: FIV
# Test method notes: Test for Feline Immunodeficiency Virus (FIV Glasgow 8) in Crandell Feline Kidney cells
# Format: cell-based
# Run parameters: FIV Glasgow 8, Crandell Feline Kidney cells, 11-14 days, read-out: MIC (minimum concentration of drug inhibiting syncitial production)
# Protocol: Drug stocks were diluted to the appropriate concentration, in medium (e.g. 10 mg/ml to 200 μg/ml). 150 μl of each drug was dispersed in triplicate, across the top row of a microtitre plate (150 μl of media for virus and cell control, vc and cc). 100 μl of medium was dispersed into all other wells. […] The assay was scored by looking for presence of syncitia and, virus induced cytopathic effect in the cell monolayers, under a microscope. […]
Reply with just the number (in µg/mL).

Exercise: Find the measured MIC of Nc1ncnc2c1ncn2OCC(/C=C/P(=O)(O)O)CO (stereo not shown) [Example 15] with FIV as test system.
Solution: 30

Exercise: Find the measured MIC of Nc1ncnc2c1ncn2OCC/C=C/P(=O)(O)O [Example 3, (E)-9-(4-phosphonobut-3-enyloxy)adenine] with FIV as test system.
Solution: 10

Exercise: Find the measured MIC of Nc1nc2c(ncn2OCC(/C=C/P(=O)(O)O)CO)c(=O)[nH]1 (stereo not shown) [Example 13] with FIV as test system.
Solution: 0.1

***
Exercise: Find the measured MIC of Nc1ncnc2c1ncn2CC(/C=C/P(=O)(O)O)CO (stereo not shown) [Example 17] with FIV as test system.
Solution: 0.03

---

# Test method notes: Cell cytotoxicity test (MTT) in peripheral human lymphocytes
# Type: cell-based
# Method: Peripheral human lymphocytes were isolated by density gradient centrifugation from blood donations of healthy volunteers. The `buffy coat`-fractions of these donations were provided by blood donation centres. […] A viability staining was performed by means of the trypan blue dye-exclusion method. The concentration of cells in the suspension and the percentage of viable cells were calculated. […] For each well the difference in absorption (abs. 550 nm-abs. 690 nm) was calculated. […]
Value kind: CC50 at 96 h (nM)
Reply with just the number (in nM).

Exercise: Give reported CC50 at 96 h value for Nc1nc2c(ncn2OCC/C=C/P(=O)(O)O)c(=O)[nH]1 [Example 1, (E)-9-(4-phosphonobut-3-enyloxy)guanine]
Solution: 1000

---

# Tested on: VZV
# Test method notes: Plaque Reduction Test for Varicella-Zoster Virus (Ellen strain) in MRC-5 cells
# Assay type: cell-based
# Run parameters: Human alphaherpesvirus 3, MRC5
Value kind: IC50

Reference set (2 entries):
Exercise: Find the measured IC50 of Nc1nc2c(ncn2OCC/C=C/P(=O)(O)O)c(=O)[nH]1 [Example 1, (E)-9-(4-phosphonobut-3-enyloxy)guanine] with VZV as test system.
Solution: < 3 µg/mL

Exercise: Find the measured IC50 of Nc1nc2c(ncn2OCC/C=C\P(=O)(O)O)c(=O)[nH]1 [Example 11, (Z)-9-(4-phosphonobut-3-enyloxy)guanine] with VZV as test system.
Solution: > 100 µg/mL

// next item, IC50 requested
Exercise: Find the measured IC50 of Nc1ncnc2c1ncn2CC(/C=C/P(=O)(O)O)CO (stereo not drawn) with VZV as test system.
Solution: < 3 µg/mL
